Data origin, for the record: PubChem BioAssay (NCI)

System: HOP-18 NSCLC
method-description: NCI tumour cell line growth inhibition, 48 h
Please respond with reported TGI for every item in the list.

get_value(item= C/C(N=NS(=O)(=O)c1ccc(C)cc1)=C1\C=CC=CN1O , readout=TGI) returns > 100 µM

get_value(item= O=c1ccn(/C=C/C(O)C(O)CO)c(=O)[nH]1 (stereo unspecified) , readout=TGI) returns > 100 µM

get_value(item= Cc1ccc(NC(=O)/C(C#N)=C/c2ccccc2)c(C)c1 , readout=TGI) returns > 100 µM

get_value(item= COCCOCOC(C)(C)[C@H](CCO)O[Si](c1ccccc1)(c1ccccc1)C(C)(C)C , readout=TGI) returns 31.9 µM

get_value(item= c1ccc(CN2COc3c(ccc4c5c(ccc34)CN(Cc3ccccc3)CO5)C2)cc1 , readout=TGI) returns > 100 µM

get_value(item= CC(C)=CCC/C(C)=C/CCC1(C)C=Cc2c(c3ccccc3oc2=O)O1 (stereo unspecified) , readout=TGI) returns 32.6 µM

---

Please respond with reported GI50 for every item in the list.
Test system: NCI/ADR-RES ovarian
method-description: NCI tumour cell line growth inhibition, 48 h

get_value(item= COc1ccc(-c2[nH]c3ccccc3c2/C=C(\C#N)S(=O)(=O)c2ccccc2)cc1 , readout=GI50) returns 0.427 µM

get_value(item= COc1ccc2c(c1)C(=O)c1c-2c(=O)n(CCCN(C)C)c2cc(OC)c(OC)cc12 , readout=GI50) returns 5.93 µM

get_value(item= COC1=C(OC)C(=O)C(CCCCCCCCCCO)=C(C)C1=O , readout=GI50) returns 3.34 µM

get_value(item= COCCOCCOCCOCCOC(=O)OC[n+]1ccc(NC(=NCCCCCCOc2ccc(Cl)cc2)NC#N)cc1 , readout=GI50) returns < 0.0395 µM

get_value(item= COC1=C(OC)[C@]2(OC)c3c(O)c(OC)c4c(c3O[C@@]23O[C@@H](c2ccccc2)CC=C3C1=O)[C@@H](OC)C[C@H](c1ccccc1)O4 , readout=GI50) returns 0.607 µM

get_value(item= COc1cc2c(cc1NC(=O)C(Cl)Cl)-c1ccc(NC(=O)C(Cl)Cl)cc1C2 , readout=GI50) returns 0.789 µM

get_value(item= O=S(=O)(NCCCNc1nccc(-c2c(-c3ccc(F)cc3)nc3sccn23)n1)c1ccc(F)cc1 , readout=GI50) returns 6.6 µM

get_value(item= CC1(C)[C@H](O)[C@H](F)C[C@@]2(C)Oc3ccc(C(=O)Nc4ccc5c(c4)NC(=O)C54CCN(CCCCC#N)CC4)cc3C[C@H]12 , readout=GI50) returns 42.9 µM

get_value(item= N#CC1C(N)=NNC12Nc1ccccc1S2 (centres undefined) , readout=GI50) returns 17.7 µM

---

Please respond with reported TGI for every item in the list.
Tested on: UO-31 renal
method-description: NCI tumour cell line growth inhibition, 48 h

get_value(item= O=C1/C(=C/c2ccccc2[N+](=O)[O-])COc2ccc(O)cc21 , readout=TGI) returns 2.63 µM

get_value(item= Nc1ccc(-c2nc3ccc(F)cc3s2)cc1I , readout=TGI) returns > 100 µM

get_value(item= Cc1nc(N(C(C)C)C(C)C)c(C(C)C)o1 , readout=TGI) returns > 100 µM

get_value(item= O=C(c1ccco1)c1c(C(F)(F)F)n([O-])c2cc(F)c(F)cc2[n+]1=O , readout=TGI) returns 1.03 µM

get_value(item= BrCc1ccc(CBr)c2c1-c1c(CBr)ccc3ccc(CBr)c-2c13 , readout=TGI) returns > 100 µM

get_value(item= CC(C)=CC(=O)OC1C2C(C)=CC(O)C(O)C2(C)C2C3(O)OCC24C(CC(=O)OC14)C(C)C3O (centres undefined) , readout=TGI) returns 8.57 µM

get_value(item= CC1CCC2(C)C(CC=C(C=O)C2(O)C=O)C12CO2 (centres undefined) , readout=TGI) returns 5.69 µM

get_value(item= Nc1nc2ncn(CC(O)CO)c2c(=O)[nH]1 (centres undefined) , readout=TGI) returns > 100 µM

get_value(item= O/N=C1/CCCc2nonc21 , readout=TGI) returns > 100 µM

get_value(item= c1cncc(CSc2ncnc3nc[nH]c23)c1 , readout=TGI) returns > 100 µM

get_value(item= COc1ccc(-n2c(C)nc3ccc(NC4OC(CO)C(O)C(O)C4O)cc3c2=O)cc1 (centres undefined) , readout=TGI) returns > 100 µM

get_value(item= O=S(=O)(O)c1ccc2cc3nn(-c4ccc(/C=C/c5ccc(-n6nc7cc8ccc(S(=O)(=O)O)cc8cc7n6)cc5S(=O)(=O)O)c(S(=O)(=O)O)c4)nc3cc2c1 , readout=TGI) returns > 100 µM

get_value(item= CS(=O)(=O)C1(Br)S(=O)(=O)OCCOS1(=O)=O , readout=TGI) returns > 100 µM

get_value(item= CCN1C[C@]2(C)CC[C@H](OC)C34C5C[C@@H]6[C@@H](OC)C[C@@](OC)(C5[C@H]6OCc5ccccc5)C(C13)[C@H](OC(C)=O)[C@@H]42 (some centres undefined) , readout=TGI) returns > 100 µM

get_value(item= C#CCNC(=O)NC(CCCCNC(=O)OCc1ccccc1)C(=O)OCc1ccccc1 (centres undefined) , readout=TGI) returns 44.6 µM

get_value(item= N#C/C(=C1\OC(=N)C(c2ccc(Cl)cc2Cl)C1=O)c1ccc(Cl)cc1Cl (centres undefined) , readout=TGI) returns > 100 µM

get_value(item= Cc1ccc(Cl)cc1-n1c(C)nc2c(cnn2-c2ccnc3c(C(F)(F)F)cccc23)c1=O , readout=TGI) returns > 100 µM

get_value(item= CC1CCN(CCOc2ccc(CNc3ccc4nc(CCC5CCCCC5)[nH]c4c3)cc2)CC1 , readout=TGI) returns 2.67 µM

get_value(item= COc1cc(/C=C/C(=O)O[C@H]2[C@H](O[C@@H]3O[C@@H](C)[C@H](O)[C@@H](O)[C@H]3O)[C@@H](O)[C@H](OCCc3ccc(O)c(O)c3)O[C@@H]2COC2OCC(O)(CO)C2O)ccc1O (some centres undefined) , readout=TGI) returns > 100 µM
